Origin of the recorded values: patent US5804576A

Item-by-item account of inhibition at 0.1 µM
Target: purified bovine adrenal G6PDH (Bos taurus)
Construct: full-length, wild type, no tag
Assay: Inhibition of purified bovine adrenal G6PDH
Type: biochemical
Conditions: Conc. 0.1 μm; read-out: Percent Inhibition (G6PDH)
From the text: The compounds listed below are screened as inhibitors of purified bovine adrenal G6PDH activity as one predictor of cancer preventive action. The assay for testing the inhibition of purified bovine adrenal G6PDH is according to the procedure by Oertel, G. W. and Rebelein, I. in Biochem. Biophys. Acta, 184, 459-460 (1969). The results are given below in Table I: […]
Answer format: numeric, % implied, no suffix.

C[C@]12CC[C@H](O)CC1=CC[C@@H]1[C@@H]2CC[C@]2(C)C(=O)CC[C@@H]12 [DHEA, 3β-Hydroxy-5-androst-en-17-one, reference compound]    12

Q: Look up purified bovine adrenal G6PDH (Bos taurus) data: inhibition at 0.1 µM of CC1=C2C[C@@H](O)CC[C@]2(C)[C@H]2CC[C@]3(C)C(=O)CC[C@H]3[C@@H]2C1 [Compound 18] , then report it.
A: 10

Q: Look up purified bovine adrenal G6PDH (Bos taurus) data: inhibition at 0.1 µM of C[C@H]1CC[C@@]2(C)C(=CC[C@@H]3[C@@H]2CC[C@]2(C)C(=O)CC[C@@H]32)C1 [Compound 16, 3β-methyl-5-androsten-17-one] , then report it.
A: 25

---

target: purified bovine adrenal G6PDH (Bos taurus, UniProt F1MMK2); construct: full-length, wild type, no tag; assay: Inhibition of purified bovine adrenal G6PDH; format: biochemical; details: Conc. 0.1 μm; read-out: Percent Inhibition (G6PDH)
Sequence (F1MMK2 31-70): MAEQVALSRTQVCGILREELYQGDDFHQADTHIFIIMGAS
Sequence (F1MMK2 101-575): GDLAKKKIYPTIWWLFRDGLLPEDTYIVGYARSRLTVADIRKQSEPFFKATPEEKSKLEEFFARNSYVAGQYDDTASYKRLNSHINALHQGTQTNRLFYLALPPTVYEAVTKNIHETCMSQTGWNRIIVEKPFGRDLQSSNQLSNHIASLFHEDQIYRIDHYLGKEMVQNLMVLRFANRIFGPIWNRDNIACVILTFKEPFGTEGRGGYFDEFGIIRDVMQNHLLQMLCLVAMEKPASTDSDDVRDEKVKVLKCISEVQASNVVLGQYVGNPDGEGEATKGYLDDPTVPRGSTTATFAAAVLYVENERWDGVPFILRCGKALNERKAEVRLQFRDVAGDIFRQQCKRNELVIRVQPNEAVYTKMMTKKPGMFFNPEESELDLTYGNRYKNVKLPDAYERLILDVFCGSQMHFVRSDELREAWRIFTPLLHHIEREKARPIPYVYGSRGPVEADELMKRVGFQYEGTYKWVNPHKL
Item-by-item account of inhibition at 0.1 µM
Answer format: numeric, % implied, no suffix.

The examples below pair each entry with its known result.
C[C@]12CC[C@H](O)C[C@@H]1CC[C@@H]1[C@@H]2CC[C@]2(C)C(=O)CC[C@@H]12 [Compound 2]    36
CC[C@H]1CC[C@@]2(C)C(=CC[C@@H]3[C@@H]2CC[C@]2(C)C(=O)CC[C@@H]32)C1 [Compound 13]    58
CCCC[C@H]1CC[C@@]2(C)C(=CC[C@@H]3[C@@H]2CC[C@]2(C)C(=O)CC[C@@H]32)C1 [Compound 17]    49

Next:
Q: Query inhibition at 0.1 µM for C[C@]12CCCC[C@@H]1CC[C@@H]1[C@@H]2CC[C@]2(C)C(=O)CC[C@@H]12 [Compound 3]
A: 10
